systemName: full length wild type HBV core protein (fl wt HBc), capsids (Hepatitis B virus (genotype D; strain ayw))
experimentalProtocol: ITC, dimer titrated into fl wt HBc capsids, 20 °C, one site model
experimentalEndpoint: pKd
Answers are plain numbers, as −log10 of the molar value.

Given the substance SLLGRM-dimer (peptide) , write its reported pKd.
5.31
